assay.remarks: Thermodynamic solubility in FaSSIF
Format: physicochemical
test.context: thermodynamic from solid, room temperature, 24 hours shaking, read-out: Solubility (μg/mL)
metric: solubility at 24 h (µg/mL)
The reply should be a number in µg/mL, with the unit left off.

Sure, the documented solubility at 24 h for O=c1c(-c2ccc(O)cc2)coc2cc(OP(=O)(O)O)cc(O)c12 [Genistein-7-O-phosphate, genistein 7-O-phosphate, reference compound] is 1250

Notebook: CC(C)(CCCOP(=O)(O)O)C(=O)Oc1ccc(-c2coc3cc(O)cc(O)c3c2=O)cc1 [Compound 4] , solubility at 24 h read as 293

Input O=c1c(-c2ccc(O)cc2)coc2cc(OCOP(=O)(O)O)cc(O)c12 [Compound 2] . Output solubility at 24 h: 2970

Quick note, solubility at 24 h for O=c1c(-c2ccc(OCOP(=O)(O)O)cc2)coc2cc(O)cc(O)c12 [Compound 1] landed at 4770

Briefly, solubility at 24 h measured for O=c1c(-c2ccc(OCOP(=O)(O)O)cc2)coc2cc(OCOP(=O)(O)O)cc(O)c12 [Compound 3] : 5000

Proceed to the following item.
Record O=c1c(-c2ccc(O)cc2)coc2cc(O)cc(O)c12 [Genistein] . Reported solubility at 24 h: 7.29

// data source = patent US20250170154A1
